Each recorded value in this set is attributed to the supplement of paper PMC11061612.

tested on: 8505C (Thyroid Gland Carcinoma); test: combination Emax (second highest fraction inhibited in the dose matrix, 72 h); higher = more inhibition; extreme values may be limits of the assay
measuredProperty: combination Emax
Reply: number alone, nothing else.

# molecule, combination Emax
records = [
    ("Cc1c2c(nn1C)CSCc1cc(n(C)n1)CSc1cc(c3ccccc3c1)OCCCc1c(C(=O)O)n(C)c3c-2c(Cl)ccc13 [AZD5991] + C1CN(CCC1(C(=O)N[C@@H](CCO)C2=CC=C(C=C2)Cl)N)C3=NC=NC4=C3C=CN4 [Capivasertib] (first compound max 1 µM, 7x7, partner max 3 µM)", 0.158),
]

Now, please, on to the next molecule.
Request the reported combination Emax associated with CC(=O)c1c(C)c2cnc(Nc3ccc(N4CCNCC4)cn3)nc2n(C2CCCC2)c1=O [Palbociclib] + Cc1c2c(nn1C)CSCc1cc(n(C)n1)CSc1cc(c3ccccc3c1)OCCCc1c(C(=O)O)n(C)c3c-2c(Cl)ccc13 [AZD5991] (first compound max 10 µM, 7x7, partner max 1 µM)
0.245
